Tested on: MOLM-13
Assay: Antiproliferative activity against human MOLM13 cells harboring FLT3 ITD mutant assessed as incorporation of [3H]thymidine into DNA after 72 hrs by beta-plate counting analysis
Format: functional, cell-based
measured.attribute: IC50 (nM)

Some entries whose results are on file:
The measured IC50 associated with CS(=O)(=O)CC1CCN(c2ccc(Nc3ncc4c5ccncc5n([C@H]5CC[C@H](C)CC5)c4n3)nn2)CC1 reads 30

The measured IC50 associated with CC(=O)c1c(C)c2cnc(Nc3ccc(N4CCNCC4)cn3)nc2n(C2CCCC2)c1=O reads 96

The measured IC50 associated with C[C@H]1CC[C@H](n2c3cnccc3c3cnc(Nc4ccc(N5CCC6(CC5)CCS(=O)(=O)C6)nn4)nc32)CC1 reads 32

The measured IC50 associated with COc1nc(Nc2ncc3c4ccncc4n([C@H]4CC[C@H](C)CC4)c3n2)ccc1N1CCC(N(C)C)CC1 reads 2

1 = CC1(C)CCC(n2c3cnccc3c3cnc(Nc4ccc(N5CCNCC5)cn4)nc32)CC1
2 = C[C@H]1CC[C@H](n2c3cnccc3c3cnc(Nc4ccc(N5CCNCC5)nn4)nc32)CC1
// which entry reports the smaller IC50, 1 or 2 ? Give the chosen item's label as your response. 2
(2: 13 nM, 1: 35 nM)

I = Fc1nccc2c3cnc(Nc4ccc(N5CCNCC5)cn4)nc3n(C3CCCC3)c12
II = C[C@H]1CC[C@H](n2c3cnccc3c3cnc(Nc4ccc(N5CCNCC5)nc4)nc32)CC1
// which entry reports the smaller IC50, I or II ? Give the chosen item's label as your response. II
(II: 5 nM, I: 21 nM)

----------
Test: Drug uptake in CrTac:NCR-Foxn1nu (NCR) nude mouse at 150 mg/kg, po after 3 hrs
Assay type: ADME, organism-based
Parameters: dose 150 mg/kg, route oral
Conditions: in vivo, read-out: Drug uptake
measured.attribute: concentration at 3 h (µM)

The measured concentration at 3 h associated with C[C@H]1CC[C@H](n2c3cnccc3c3cnc(Nc4ccc(N5CCC6(CCC(=O)N6)CC5)cn4)nc32)CC1 reads 14.7

The measured concentration at 3 h associated with C[C@H]1CC[C@H](n2c3cnccc3c3cnc(Nc4ccc(N5CCN(C(=O)CO)CC5)nn4)nc32)CC1 reads 10.9

I = C[C@H]1CC[C@H](n2c3cnccc3c3cnc(Nc4ccc(N5CCC6(CC5)CCS(=O)(=O)C6)nn4)nc32)CC1
II = CN(C)C1CCN(c2ccc(Nc3ncc4c5ccncc5n([C@H]5CC[C@H](C)CC5)c4n3)nn2)CC1
// which entry reports the smaller concentration at 3 h, I or II ? Give the chosen item's label as your response. II

----------
Target: Receptor-type tyrosine-protein kinase FLT3 (Homo sapiens, UniProt P36888, N841I)
Assay: Binding affinity to FLT3 N841I mutant (unknown origin)
measured.attribute: pKd
Reminder that pKd is minus the log10 of a molar concentration.

The measured pKd associated with C[C@H]1CC[C@H](n2c3cnccc3c3cnc(Nc4ccc5c(n4)CCN(C(=O)CO)C5)nc32)CC1 reads 8.40

----------
Test system: MOLM-13
Assay: Antiproliferative activity against human MOLM13 cells harboring FLT3 ITD mutant assessed as incorporation of [3H]thymidine into DNA after 72 hrs by beta-plate counting analysis
Format: functional, cell-based
measured.attribute: IC50 (nM)

Some entries whose results are on file:
The measured IC50 associated with C[C@H]1CC[C@H](n2c3cnccc3c3cnc(Nc4ccc5c(n4)CCN(C(=O)CO)C5)nc32)CC1 reads 19

The measured IC50 associated with CC1(C)CCCC(n2c3cnccc3c3cnc(Nc4ccc(N5CCNCC5)cn4)nc32)C1 (stereo not given) reads 10

The measured IC50 associated with O=c1[nH]ccc2c3cnc(Nc4ccc(N5CCNCC5)cn4)nc3n(C3CCCC3)c12 reads 5

The measured IC50 associated with C[C@H]1CC[C@H](n2c3cnccc3c3cnc(Nc4ccc(N5CCC(N)CC5)cn4)nc32)CC1 reads 8

The measured IC50 associated with Cc1nccc2c3cnc(Nc4ccc(N5CCNCC5)cn4)nc3n(C3CCCC3)c12 reads 5

The measured IC50 associated with COc1nc(Nc2ncc3c4ccncc4n([C@H]4CC[C@H](C)CC4)c3n2)ccc1N1CCC2(CCC(=O)N2)CC1 reads 4

The measured IC50 associated with CN(C)C1CCN(c2ccc(Nc3ncc4c5ccncc5n([C@H]5CC[C@H](C)CC5)c4n3)nc2)CC1 reads 10

The measured IC50 associated with C[C@H]1CC[C@H](n2c3cnccc3c3cnc(Nc4ccc(N5CCC6(CCC(=O)N6)CC5)cn4)nc32)CC1 reads 21

P = N#Cc1nccc2c3cnc(Nc4ccc(N5CCNCC5)cn4)nc3n(C3CCCC3)c12
Q = O[C@H]1CC[C@H](n2c3cnccc3c3cnc(Nc4ccc(N5CCNCC5)cn4)nc32)CC1
Parameter check: reported IC50 is higher for which label, P or Q ? Give the chosen item's label as your response. P
